Provide the reported pIC50 of each item.
# Tested On: equine serum butyrylcholinesterase (BChE, EC 3.1.1.8) (Equus caballus)
# Construct: purchased Sigma-Aldrich (St. Louis, MO, USA); host or cells: equine serum
# Sequence (P81908 whole entry): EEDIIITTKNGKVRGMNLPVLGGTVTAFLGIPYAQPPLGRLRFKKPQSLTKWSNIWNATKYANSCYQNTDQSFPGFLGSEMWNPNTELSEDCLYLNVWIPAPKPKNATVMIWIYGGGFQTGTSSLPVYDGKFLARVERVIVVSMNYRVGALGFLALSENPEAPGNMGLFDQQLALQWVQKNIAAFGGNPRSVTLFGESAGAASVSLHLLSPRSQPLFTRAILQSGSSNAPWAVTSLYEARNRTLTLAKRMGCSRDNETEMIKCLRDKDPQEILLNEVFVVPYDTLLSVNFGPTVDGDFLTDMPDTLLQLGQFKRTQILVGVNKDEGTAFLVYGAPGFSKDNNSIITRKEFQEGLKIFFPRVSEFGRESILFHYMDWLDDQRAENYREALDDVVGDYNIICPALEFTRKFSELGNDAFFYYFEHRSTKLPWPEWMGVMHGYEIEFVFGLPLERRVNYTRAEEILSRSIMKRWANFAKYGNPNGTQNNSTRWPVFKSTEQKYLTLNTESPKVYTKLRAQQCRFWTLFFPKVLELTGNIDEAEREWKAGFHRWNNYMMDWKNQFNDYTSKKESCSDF
# Protocol Description: biochemical
# Format: biochemical
# Cond: Ellman's assay, pH 8, 15 min pre-incubation, butyrylthiocholine chloride substrate, mean ± SD, triplicate; read-out: BChE IC50
# reply with the number alone; pIC50 is -log10 of concentration in mol/L

Challenge: Fill in the blank: the reported pIC50 of O=C(OCC(=O)C12CC3CC(CC(C3)C1)C2)c1ccc([N+](=O)[O-])cc1 is ____.
Response given: 3.11

Challenge: Need pIC50, item O=C(OCC(=O)C12CC3CC(CC(C3)C1)C2)c1ccc(Cl)cc1
Response given: 2.89

Challenge: Give the measured pIC50 of COc1cccc(C(=O)OCC(=O)C23CC4CC(CC(C4)C2)C3)c1 .
Response given: 3.65

Challenge: I am curious: what pIC50 value has been reported for O=C(OCC(=O)C12CC3CC(CC(C3)C1)C2)c1cccc(Cl)c1 ?
Response given: 3.01

###

# Tested On: Electric eel acetylcholinesterase (AChE, EC 3.1.1.7) (Electrophorus electricus, UniProt O42275)
# Construct: purchased Sigma-Aldrich (St. Louis, MO, USA)
# Sequence (O42275 24-633): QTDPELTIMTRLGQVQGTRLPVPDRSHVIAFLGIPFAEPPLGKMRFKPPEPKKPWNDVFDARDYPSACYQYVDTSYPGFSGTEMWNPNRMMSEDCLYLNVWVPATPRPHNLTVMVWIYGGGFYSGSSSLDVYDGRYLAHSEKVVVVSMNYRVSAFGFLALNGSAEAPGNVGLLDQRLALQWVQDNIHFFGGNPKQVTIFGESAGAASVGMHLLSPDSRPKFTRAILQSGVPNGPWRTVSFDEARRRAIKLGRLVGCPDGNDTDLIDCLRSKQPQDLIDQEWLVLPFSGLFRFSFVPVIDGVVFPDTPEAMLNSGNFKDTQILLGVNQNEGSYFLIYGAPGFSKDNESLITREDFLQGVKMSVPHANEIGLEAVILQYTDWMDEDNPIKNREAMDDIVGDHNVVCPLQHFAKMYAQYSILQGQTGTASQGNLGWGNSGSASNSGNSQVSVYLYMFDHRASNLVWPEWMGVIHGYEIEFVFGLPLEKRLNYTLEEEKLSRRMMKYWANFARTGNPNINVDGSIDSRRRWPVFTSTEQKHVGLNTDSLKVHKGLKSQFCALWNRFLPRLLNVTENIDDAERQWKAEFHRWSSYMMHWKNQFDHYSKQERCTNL
# Protocol Description: biochemical
# Type: biochemical
# Cond: Ellman's assay, pH 8, 15 min pre-incubation, acetylthiocholine iodide substrate, mean ± SD, triplicate; read-out: AChE IC50
Property Measured: pIC50
Expect pIC50 as a plain number equal to -log10 of the molar concentration.

Challenge: // lookup pIC50 for Cc1cccc(C(=O)OCC(=O)C23CC4CC(CC(C4)C2)C3)c1
Response given: 3.72

Challenge: Could you share which pIC50 value was measured for O=C(OCC(=O)C12CC3CC(CC(C3)C1)C2)c1ccccc1Cl ?
Response given: 3.44

Challenge: For O=C(OCC(=O)C12CC3CC(CC(C3)C1)C2)c1ccc([N+](=O)[O-])cc1 , what is its reported pIC50?
Response given: 3.46

Challenge: Entry under review: O=C(OCC(=O)C12CC3CC(CC(C3)C1)C2)c1ccc(Cl)cc1 . Reported pIC50?
Response given: 3.47

Challenge: Given the entry O=C(OCC(=O)C12CC3CC(CC(C3)C1)C2)c1ccccc1 [Compound 2a, 2-(Adamantan-1-yl)-2-oxoethyl benzoate] , report its measured pIC50.
Response given: 3.00

Challenge: Quick check: pIC50 of Cc1ccccc1C(=O)OCC(=O)C12CC3CC(CC(C3)C1)C2 ?
Response given: 3.76

###

# Tested On: Electric eel acetylcholinesterase (AChE, EC 3.1.1.7) (Electrophorus electricus, UniProt O42275)
# Construct: purchased Sigma-Aldrich (St. Louis, MO, USA)
# Protocol Description: biochemical
# Type: biochemical
# Cond: Ellman's assay, pH 8, 15 min pre-incubation, acetylthiocholine iodide substrate, mean ± SD, triplicate; read-out: AChE IC50
# Procedure: Electric eel acetylcholinesterase (AChE, EC 3.1.1.7), equine serum butyrylcholinesterase (BChE, EC 3.1.1.8), 5,5’-dithio-bis-2-nitrobenzoic acid (DTNB), and sodium phosphate dibasic (Na2HPO4) were purchased from Sigma-Aldrich (St. Louis, MO, USA). […] AChE and BChE inhibitory activities of the compounds were determined by Ellman’s assay with minor modifications. […] Each test was carried out in triplicate and the results were expressed as an average value. […]
Property Measured: pIC50
Reminder that pIC50 is minus the log10 of a molar concentration.

Challenge: Value lookup for pIC50; key = O=C(OCC(=O)C12CC3CC(CC(C3)C1)C2)c1ccc(Cl)cc1Cl
Response given: 4.11

Challenge: Entry under review: O=C(OCC(=O)C12CC3CC(CC(C3)C1)C2)c1cccc(Cl)c1 . Reported pIC50?
Response given: 3.55

Challenge: Could you tell me which pIC50 is on file for O=C(OCC(=O)C12CC3CC(CC(C3)C1)C2)c1ccccc1[N+](=O)[O-] ?
Response given: 3.16

Challenge: Quick check: pIC50 of COc1cccc(C(=O)OCC(=O)C23CC4CC(CC(C4)C2)C3)c1 ?
Response given: 3.78

Challenge: Need pIC50, item O=C(OCC(=O)C12CC3CC(CC(C3)C1)C2)c1cccc([N+](=O)[O-])c1
Response given: 3.63
